# Protocol Notes: Compound was tested for inhibition of beta-N-acetylglucosaminidase from jack beans.
# Set-up: species or system Canavalia ensiformis
Measure Name: Ki
Kindly format the answer as number then unit.

[in] Please give the measured Ki for this compound: O[C@H]1[C@H](O)[C@H](O)CNC[C@H]1O
[out] 4.6 µM

[in] Please look up its Ki: O[C@H]1[C@H](O)[C@@H](O)CNC[C@@H]1O
[out] 22.7 µM
